Entries and their log10 IC50
# measured-target: human adrenergic-α2B receptor (Homo sapiens, UniProt P18089)
# Construct: expressed in transfected cells; membrane preparation
# Sequence (P18089 whole entry): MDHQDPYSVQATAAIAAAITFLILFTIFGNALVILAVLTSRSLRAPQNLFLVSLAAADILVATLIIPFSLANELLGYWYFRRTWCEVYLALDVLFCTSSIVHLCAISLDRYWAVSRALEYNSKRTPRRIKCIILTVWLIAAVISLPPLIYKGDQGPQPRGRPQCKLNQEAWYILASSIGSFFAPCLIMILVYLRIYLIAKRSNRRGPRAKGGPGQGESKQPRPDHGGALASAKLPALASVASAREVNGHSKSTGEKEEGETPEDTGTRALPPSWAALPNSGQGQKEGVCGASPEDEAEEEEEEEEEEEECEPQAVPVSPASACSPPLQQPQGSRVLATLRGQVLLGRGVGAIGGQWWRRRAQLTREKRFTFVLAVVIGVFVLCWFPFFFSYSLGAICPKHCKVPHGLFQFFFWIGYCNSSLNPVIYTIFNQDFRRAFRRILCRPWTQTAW
# assay-summary: Radioligand binding experiment for α2B-adrenoceptor ([3H]-raulwolscine competition, CHO cell membranes)
# test-context: [3H]raulwolscine 1 nM, membranes of CHO cells transfected with human α2B receptor; read-out: pIC50 α2B (converted)
quantity-name: log10 IC50 (log10 of the value in µM)

> print(dat)
                                    molecule  quantity.name  value.measured
 1  C/C(=C\c1ccccc1)CN1CCC(n2cnn(CCN3CCCCC3)c2=O)CC1     log10 IC50           -0.20
 2  O=c1n(-c2ccc(N3CCCCC3)cc2)cnn1CC1CCN(CCOc2ccccc2)CC1     log10 IC50           -1.50
 3  C/C(=C\c1ccccc1)CN1CCC(n2cnn(CCN(C)CCOc3ccccc3)c2=O)CC1     log10 IC50           -0.70
 4  COc1ccc(N2CCN(c3ccc(-n4cnn(C(C)C(C)NCCOc5ccccc5)c4=O)cc3)CC2)cc1 (stereo not drawn)     log10 IC50           -0.30
 5  O=c1n(-c2ccc(NCc3ccc(F)cc3)cc2)cnn1CCNCCOc1ccccc1     log10 IC50           -0.90
 6  O=C1c2ccccc2C(=O)N1CCCn1cnn(CC2CCN(CCOc3ccccc3)CC2)c1=O     log10 IC50           -1.70
 7  O=c1n(-c2ccc(N3CCOCC3)cc2)cnn1CC1CCN(CCOc2ccccc2)CC1     log10 IC50           -1.60
 8  O=c1n(-c2ccc(CN3CCC(O)CC3)cc2)cnn1CC1CCN(CCOc2ccccc2)CC1     log10 IC50           -1.70
 9  O=c1n(-c2ccc(N3CCN(Cc4ccccc4)CC3)cc2)cnn1CCNCCOc1ccccc1     log10 IC50           -0.60
10  O=c1n(-c2ccc(N3CCC(N4CCCC4)CC3)cc2)cnn1CCNCCOc1ccccc1     log10 IC50           -1.00
11  C/C(=C\c1ccccc1)CN1CCC(n2cnn(-c3ccc(CN)cc3)c2=O)CC1     log10 IC50           -1.20
12  C/C(=C\c1ccccc1)CN1CCC(n2cnn(Cc3ccc(CN)cc3)c2=O)CC1     log10 IC50           -1.30
13  CC(C)N1CCN(c2ccc(-n3cnn(CC4CCN(CCOc5ccccc5)CC4)c3=O)cc2)CC1     log10 IC50           -2.40
14  CN(C)CCNc1ccc(-n2cnn(CCNCCOc3ccccc3)c2=O)cc1     log10 IC50           -1.50
15  O=c1n(-c2ccc(CNCCN3CCCCC3)cc2)cnn1CCNCCOc1ccccc1     log10 IC50           -0.90
16  CN1CCCN(Cc2ccc(-n3cnn(CC4CCN(CCOc5ccccc5)CC4)c3=O)cc2)CC1     log10 IC50           -2.00
17    NCc1ccc(Cn2cnn(CCNCCOc3ccccc3)c2=O)cc1     log10 IC50           -0.90
18  O=c1n(-c2ccc3c(c2)CCN(Cc2ccc(F)cc2)C3)cnn1CCNCCOc1ccccc1     log10 IC50           -0.70
19  CN1CCCN(c2ccc(-n3cnn(CC4CCN(CCOc5ccccc5)CC4)c3=O)cc2)CC1     log10 IC50           -2.30
20  CN1CCCN(Cc2ccc(-n3cnn(CCNCCOc4ccccc4)c3=O)cc2)CC1     log10 IC50           -1.20
21  O=c1n(CCNCCOc2ccccc2)nnn1-c1ccc(CN2CCC(O)CC2)cc1     log10 IC50           -0.40
22  CC(NCCOc1ccccc1)C(C)n1ncn(-c2ccc(N3CCN(c4ccc(O)cc4)CC3)cc2)c1=O (racemic) [compound 5]     log10 IC50           -0.30
23  O=c1n(-c2ccc(CNCc3ccccc3)cc2)cnn1CCNCCOc1ccccc1     log10 IC50           -0.70
24  CN(Cc1ccccc1)C(=O)Cn1cnn(CC2CCN(CCOc3ccccc3)CC2)c1=O     log10 IC50           -0.80
25  C/C(=C\c1ccccc1)CN1CCC(n2cnn(CCNCCOc3ccccc3)c2=O)CC1 [compound 28]     log10 IC50           -0.70
26  O=c1n(CCNCCOc2ccccc2)cnn1-c1ccc(CN2CCOCC2)cc1     log10 IC50           -0.70
27  CS(=O)(=O)N1CCc2cc(-n3cnn(CCNCCOc4ccccc4)c3=O)ccc2C1     log10 IC50           -0.60
28  O=c1n(-c2ccc(CN3CCC(N4CCCC4)CC3)cc2)cnn1CCNCCOc1ccccc1     log10 IC50           -1.10
29  O=c1n(CC2CCN(CCOc3ccccc3)CC2)cnn1CCN1CCOCC1     log10 IC50           -1.00
30  O=c1n(-c2ccc3c(c2)CCN(CC2CCCCC2)C3)cnn1CCNCCOc1ccccc1     log10 IC50           -0.60
31  CC(NCCOc1ccccc1)C(C)n1ncn(-c2ccc(N3CCN(c4ccc(O)cc4)CC3)cc2)c1=O (single isomer, unassigned) [compound 4]     log10 IC50           -0.70
32  CN(C)CCNc1ccc(-n2cnn(CC3CCN(CCOc4ccccc4)CC3)c2=O)cc1     log10 IC50           -2.40
33  O=c1n(-c2ccc(CNCc3ccccn3)cc2)cnn1CCNCCOc1ccccc1     log10 IC50           -0.70

Values from patent US20100029620A1
